These data points were gathered from patent US11584727B2.

Target: wild type transthyretin (WT-TTR) (Homo sapiens, UniProt P02766)
Construct: made in house; host or cells: E. coli BL21 (DE3), pET23a plasmid
Assay: WT-TTR amyloid fibril formation assay (turbidimetry, acid-induced)
Format: biochemical
Settings: WT-TTR 3.6 μM, 1:1 TTR-compound stoichiometry, pH 4.4, 72 hours, 37° C., normalized to no-compound control (100%)
quantity-name: Fibril Formation (%)

Known Fibril Formation (%) results, listed for orientation:
Cc1cc(/C=C2\SC(=S)N([C@@H](CCC(=O)O)C(=O)O)C2=O)cc(Cl)c1O :: 18
Cc1cc(/C=C2\SC(=S)N(CCC(=O)O)C2=O)cc(C)c1O :: 24
O=C(O)CN1C(=O)/C(=C/c2ccc(O)cc2)SC1=S :: 35
O=C(O)CN1C(=O)/C(=C/c2cc(F)c(O)c(F)c2)SC1=S :: 28
O=C(O)CN1C(=O)/C(=C/c2cc(Cl)c(O)c(Cl)c2)SC1=S :: 10

(I) O=C(O)CCN1C(=O)/C(=C/c2cc(O)c(O)c(Cl)c2)SC1=S
(II) O=C(O)CN1C(=O)/C(=C/c2cc(Br)c(O)c(Br)c2)SC1=S
(III) Cc1cc(/C=C2\SC(=S)N(CC(=O)O)C2=O)cc(O)c1O
(IV) O=C(O)CN1C(=O)/C(=C/c2cc(O)c(O)c(Cl)c2)SC1=S
Query string: Order the records so the highest Fibril Formation (%) appears first and the lowest last. Please write the labels in the order that was asked for.
Result string: I, III, IV, II
(I: 33%, III: 21%, IV: 12%, II: 8%)

(a) O=C(O)CN1C(=O)/C(=C/c2cc(F)cc(F)c2)SC1=S
(b) Cc1cc(/C=C2\SC(=S)N(CC(=O)O)C2=O)cc(C)c1O
(c) O=C(O)CCN1C(=O)/C(=C/c2cc(Cl)c(O)c(Cl)c2)SC1=S
Query string: Thanks in advance: please rank these 3 entries by Fibril Formation (%), highest to lowest. Please respond by ranking the labels in the order requested.
Result string: a, b, c
(a: 44%, b: 27%, c: 7%)

====

Target: wild type transthyretin (WT-TTR) (Homo sapiens, UniProt P02766)
Construct: made in house; host or cells: E. coli BL21 (DE3), pET23a plasmid
Assay: WT-TTR amyloid fibril formation assay (turbidimetry, acid-induced)
Format: biochemical
Settings: WT-TTR 3.6 μM, 1:1 TTR-compound stoichiometry, pH 4.4, 72 hours, 37° C., normalized to no-compound control (100%)
quantity-name: Fibril Formation (%)

Cc1cc(/C=C2\SC(=S)N(CCC(=O)O)C2=O)cc(O)c1O [AT50-C20] :: 39
COc1cc(/C=C2\SC(=S)N(CC(=O)O)C2=O)cc(Cl)c1O [AT50-A00 (Z)] :: 28
Cc1cc(/C=C2\SC(=S)N(CCCC(=O)O)C2=O)cc(C)c1O [AT50-C11] :: 26
O=C(O)CCCN1C(=O)/C(=C/c2cc(F)c(O)c(F)c2)SC1=S [AT50-C09] :: 33
